- Test system: 349418-098-R tumor spheroid viability
- assay-overview: Anticancer human tumor 349418-098-R patient-derived lung adenocarcinoma cell line growth inhibition
- applied-conditions: second compound 3.16 µM; first compound 1 µM; stronger effect = lower value; spheroids with HUVEC and MSC
Assign viability, T/C to each entry below.
Just the number please, in %, no unit attached.

Dear colleague, please send me the reported viability, T/C for CC1COCCN1c1cc(-c2ccnn2C)c2ccnc(-c3ccn[nH]3)c2n1 (stereo unspecified) + Cn1nnc2c(C(N)=O)ncn2c1=O when you can. 10.3

Dear colleague, please send me the reported viability, T/C for COc1cc(C)[nH]c(=O)c1CN1CCc2c(Cl)cc(C(OC)C3COC3)c(Cl)c2C1=O (stereo unspecified) + Cn1nnc2c(C(N)=O)ncn2c1=O when you can. 84.2

Dear colleague, please send me the reported viability, T/C for [2H]c1nc(C)nc([2H])c1-c1cc(NC[C@@H](C)c2cccc3c(C(=O)NC)ccnc23)ncn1 + Cn1nnc2c(C(N)=O)ncn2c1=O when you can. 98.3

Dear colleague, please send me the reported viability, T/C for CC(C)n1c(=O)n(C)c2cnc3cc(F)c(-c4ccc(OCCCN5CCCCC5)nc4)cc3c21 + Cn1nnc2c(C(N)=O)ncn2c1=O when you can. 103

Dear colleague, please send me the reported viability, T/C for COc1ccc([C@@H](O)c2cc(-c3ncnc4cc(N5CCOCC5)ccc34)c(F)cc2Cl)nn1 + Cn1nnc2c(C(N)=O)ncn2c1=O when you can. 102

Dear colleague, please send me the reported viability, T/C for Cc1cc(C)c(CNC(=O)c2cc(-c3ccc(CN4CCOCC4)cc3)cc3c2cnn3C2CCCC2)c(=O)[nH]1 + Cn1nnc2c(C(N)=O)ncn2c1=O when you can. 104

---

- System: 349418-098-R tumor spheroid viability
- assay-overview: Anticancer human tumor 349418-098-R cell line growth inhibition;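 further: spheroids exposed to compound for 7 days before measurement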
- applied-conditions: curve of first compound; second compound 0.00949 µM; spheroids with HUVEC and MSC
- Protocol: Multicellular complex tumor spheroid response to DNA repair inhibitors in combination with DNA-damaging drugs This study explores the anticancer activities of DNA-damaging drugs and inhibitors of DNA damage repair, both as single agents and in combinations. […] Twenty-six patient-derived or established malignant cell lines were evaluated representing sarcoma, melanoma, small cell lung cancer (SCLC), non-small cell lung cancer (NSCLC), as well as bladder, ovarian and pancreatic cancers. […]
Assign pIC50 to each entry below.
Note: pIC50 values are expressed as the negative base-10 logarithm of concentration in M.

Dear colleague, please send me the reported pIC50 for O=C(c1cc(Cc2n[nH]c(=O)c3ccccc23)ccc1F)N1CCN(C(=O)C2CC2)CC1 + CC[C@@]1(O)C(=O)OCc2c1cc1n(c2=O)Cc2cc3c(CN(C)C)c(O)ccc3nc2-1 when you can. 4.63

Dear colleague, please send me the reported pIC50 for CC(C)n1c(=O)n(C)c2cnc3cc(F)c(-c4ccc(OCCCN5CCCCC5)nc4)cc3c21 + CC[C@@]1(O)C(=O)OCc2c1cc1n(c2=O)Cc2cc3c(CN(C)C)c(O)ccc3nc2-1 when you can. 5.31

Dear colleague, please send me the reported pIC50 for Cc1cc(C)c(CNC(=O)c2cc(-c3ccc(CN4CCOCC4)cc3)cc3c2cnn3C2CCCC2)c(=O)[nH]1 + CC[C@@]1(O)C(=O)OCc2c1cc1n(c2=O)Cc2cc3c(CN(C)C)c(O)ccc3nc2-1 when you can. 5.24
